Tested on: transactivating tegument protein VP16 (Human herpesvirus 1), Gal4-VP16 luciferase reporter
assay.info: VP16 transactivation inhibitors, counter-screen for SRC3 inhibitor project, cell-based, luminescence, high throughput (AID 588794)
condition.summary: mammalian cells, VP16-driven luciferase reporter luminescence; at 3.6 µM
Activity calls are given as the source filed them. Cut-off read from the data, not from the text of the source: active = inhibition above about 30%; inactive = the rest.
Hi! Could you answer with just one of these? active, inactive

Challenge: Which outcome did this test record for the compound CCOC(=O)c1cccc2c1-c1ccccc1/C2=N/O ?
Response given: inactive

Challenge: Same thing, different compound: Cc1cc(/C=c2/sc3nc4ccccc4n3c2=O)c(C)n1-c1ccccn1
Response given: active

Challenge: Same thing, different compound: Oc1ccc(-c2n[nH]c(=S)n2-c2ccc3c(c2)OCCO3)c(O)c1
Response given: active

Challenge: Same thing, different compound: CCC(C)Nc1nc(-c2ccccn2)nc2ccccc12 (stereo unspecified)
Response given: inactive

Challenge: Same thing, different compound: c1csc(Cc2nn3c(-c4ccncc4)nnc3s2)c1
Response given: inactive

Challenge: Same thing, different compound: O=C(N/N=C/c1ccccc1O)/C(=C/c1ccccc1)CCO
Response given: inactive

Challenge: Same thing, different compound: Cc1ccc(S(=O)(=O)NCCC(=O)N2CCN(c3ccccc3)CC2)cc1C
Response given: inactive

Challenge: Same thing, different compound: O=C(CSc1nnc(COc2ccc(Cl)cc2)o1)N1CCOCC1
Response given: inactive

Challenge: Same thing, different compound: CCN(C(C)=O)c1cnc(C=NNC(N)=S)c2ccccc12
Response given: inactive

Challenge: Same thing, different compound: CC(=NNc1nc2ccccc2o1)c1cc2ccccc2cn1
Response given: active

Challenge: Same thing, different compound: O=C(/C=C/c1ccc(Cl)cc1)NC(=S)Nc1ccc(NC(=O)c2ccco2)cc1
Response given: active

Challenge: Same thing, different compound: Cc1ccc(C(=O)N/N=C/c2ccc(-c3cccc(C(F)(F)F)c3)o2)cn1
Response given: inactive

Challenge: Same thing, different compound: COc1ccc(Cl)cc1C(=O)Nn1c(-c2cccs2)nc2ccccc2c1=O
Response given: inactive

Challenge: Same thing, different compound: COc1ccc2cc3cc(C(=O)Nc4cc(OC)c(OC)c(OC)c4)oc3nc2c1
Response given: active

Challenge: Same thing, different compound: O=C(NCc1ccccc1)c1cccc(NC(=O)c2ccco2)c1
Response given: active

Challenge: Same thing, different compound: COc1cccc2nc3c(C(=O)NCCN(C)C)cccc3cc12
Response given: active

Challenge: Same thing, different compound: Cc1cccc(Nc2ncnc3ccc(Br)cc23)c1
Response given: active

Challenge: Same thing, different compound: Cc1nc(SCC(=O)NNC(=O)c2ccc(F)cc2)c2ccccc2n1
Response given: inactive

Challenge: Same thing, different compound: N=c1c2c(-c3ccccc3)c(-c3ccccc3)n(Cc3ccccc3)c2ncn1CCCO
Response given: active

Challenge: Same thing, different compound: CCOc1ccc(OCc2ccc(C(=O)NN=Cc3ccc[nH]3)cc2)cc1
Response given: active

Challenge: Same thing, different compound: COC(=O)c1ccc2nc(Nc3nc4ccc(F)cc4s3)sc2c1
Response given: inactive

Challenge: Same thing, different compound: CCCCCCCN1C2=NCCCN2c2ccccc21
Response given: inactive

Challenge: Same thing, different compound: COc1ccccc1N(CC(=O)N/N=C/c1c(O)ccc2ccccc12)S(C)(=O)=O
Response given: active

Challenge: Same thing, different compound: CCCNC(=O)c1nnsc1S(=O)(=O)c1ccc(Cl)cc1
Response given: inactive

Challenge: Same thing, different compound: C(=Cc1cnc2ccccc2n1)c1ccc2c(c1)OCO2
Response given: inactive

Challenge: Same thing, different compound: Cc1ccc(CNc2ncnc3ccc(-c4ccoc4C)cc23)o1
Response given: active

Challenge: Same thing, different compound: CC1=[N+]([O-])C(C)(C)CC(C)(C)c2ccccc21
Response given: inactive

Challenge: Same thing, different compound: Cc1ccc2c(c1)/C(=C/c1ccc(F)cc1)C(=O)N2
Response given: inactive

Challenge: Same thing, different compound: O=C(Nc1ccon1)c1nc[nH]c1C(=O)NCc1ccccc1
Response given: active

Challenge: Same thing, different compound: NCCCn1c(C(=O)c2cc(Cl)c(N)c(Cl)c2)c2ccc([N+](=O)[O-])cc2[n+]1[O-]
Response given: inactive

Challenge: Same thing, different compound: CCCCN(CCCC)C(=O)CSc1nnc(-c2cc(OC)c(OC)c(OC)c2)o1
Response given: inactive

Challenge: Same thing, different compound: O=c1c2ccccc2nc(N/N=C/c2c(O)ccc3ccccc23)n1O
Response given: active

Challenge: Same thing, different compound: Cc1ccc(C(C)C)c(OCc2ccc(C(=O)N/N=C/c3ccc(O)cc3O)cc2)c1
Response given: active

Challenge: Same thing, different compound: CC(=O)c1c(C)[nH]c(C(=O)OCC(=O)Nc2c(C)cccc2C)c1C
Response given: inactive

Challenge: Same thing, different compound: O=C(NC(NC(=S)N1CCOCC1)C(Cl)(Cl)Cl)c1ccc(Cl)cc1 (stereo unspecified)
Response given: inactive

Challenge: Same thing, different compound: Cc1cc(C)c2sc(NNC(=O)c3ccc(S(=O)(=O)N4CCc5ccccc5C4)cc3)nc2c1
Response given: active

###

target: Nuclear receptor coactivator 1 (Homo sapiens) (UniProt Q15788)
Sequence (Q15788 whole entry, looked up): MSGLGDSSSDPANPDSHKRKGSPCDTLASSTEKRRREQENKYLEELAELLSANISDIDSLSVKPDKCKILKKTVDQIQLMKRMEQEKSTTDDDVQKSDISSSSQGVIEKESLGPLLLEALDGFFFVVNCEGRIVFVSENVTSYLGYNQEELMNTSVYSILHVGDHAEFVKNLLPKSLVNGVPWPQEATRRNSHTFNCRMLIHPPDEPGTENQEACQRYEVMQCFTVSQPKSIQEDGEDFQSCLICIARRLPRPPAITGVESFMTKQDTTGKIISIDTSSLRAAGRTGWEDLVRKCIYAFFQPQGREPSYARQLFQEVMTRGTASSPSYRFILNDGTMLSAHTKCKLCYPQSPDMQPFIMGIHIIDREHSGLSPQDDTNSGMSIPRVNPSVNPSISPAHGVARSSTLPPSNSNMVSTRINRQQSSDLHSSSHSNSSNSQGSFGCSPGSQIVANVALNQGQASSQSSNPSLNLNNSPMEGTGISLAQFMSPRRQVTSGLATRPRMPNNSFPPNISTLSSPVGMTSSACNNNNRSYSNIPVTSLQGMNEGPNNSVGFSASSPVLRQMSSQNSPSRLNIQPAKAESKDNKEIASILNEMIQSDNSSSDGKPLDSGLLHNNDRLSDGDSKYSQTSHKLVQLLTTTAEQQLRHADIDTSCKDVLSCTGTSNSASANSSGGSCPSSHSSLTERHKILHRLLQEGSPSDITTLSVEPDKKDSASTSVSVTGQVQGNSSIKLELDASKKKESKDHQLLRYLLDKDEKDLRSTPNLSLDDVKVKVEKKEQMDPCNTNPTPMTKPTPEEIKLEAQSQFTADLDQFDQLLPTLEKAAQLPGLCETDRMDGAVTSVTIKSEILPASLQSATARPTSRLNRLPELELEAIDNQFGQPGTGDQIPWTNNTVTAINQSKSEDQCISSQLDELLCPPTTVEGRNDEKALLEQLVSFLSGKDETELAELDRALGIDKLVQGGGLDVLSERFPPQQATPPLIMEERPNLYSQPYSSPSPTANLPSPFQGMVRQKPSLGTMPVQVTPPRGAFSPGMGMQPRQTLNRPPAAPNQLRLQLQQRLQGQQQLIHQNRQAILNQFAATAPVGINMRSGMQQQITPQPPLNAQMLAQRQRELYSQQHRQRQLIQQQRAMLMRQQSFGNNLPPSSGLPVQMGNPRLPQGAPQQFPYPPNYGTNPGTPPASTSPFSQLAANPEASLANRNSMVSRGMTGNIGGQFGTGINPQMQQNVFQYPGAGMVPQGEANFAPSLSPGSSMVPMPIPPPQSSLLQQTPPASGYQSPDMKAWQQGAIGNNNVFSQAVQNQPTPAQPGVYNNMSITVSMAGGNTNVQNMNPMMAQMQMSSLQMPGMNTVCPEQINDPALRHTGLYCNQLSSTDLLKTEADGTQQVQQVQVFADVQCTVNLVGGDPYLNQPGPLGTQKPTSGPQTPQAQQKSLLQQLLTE
assay.info: SRC1 coactivator transcriptional activity inhibitors, confirmation, cell-based, luminescence, quadruplicate (AID 588820);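 note: 0% = DMSO wells and 100% = gossypol 36 µM treated wells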
condition.summary: HEK293 GAL4-SRC1 luciferase reporter, at 3.6 µM
Calls of active or inactive are those of the source.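 Rule for the calls: active = mean inhibition above 46.68%, the untreated control wells mean plus 3 SD; inactive = the rest.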
Hi! Could you answer with just one of these? 1.0 for active, 0.0 for inactive

Challenge: Which outcome did this test record for the molecule Fc1ccc(NC(=S)N2CCCN(c3ccc(C(F)(F)F)cn3)CC2)c(F)c1 ?
Response given: 0.0

Challenge: Same thing, different molecule: Cc1ccccc1-c1ccc(CN2C(C)C(=O)N(Cc3cn(Cc4ccco4)nn3)CCS2(=O)=O)cc1 (configuration not stated)
Response given: 0.0

Challenge: Same thing, different molecule: OCC1OC(n2ccc3c(NO)ncnc32)C(O)C1O (configuration not stated)
Response given: 1.0

Challenge: Same thing, different molecule: Cc1ccc(-n2c(C)nn(CC3CC3)c2=O)cc1
Response given: 0.0

Challenge: Same thing, different molecule: CCOC(=O)C(=O)NNc1ccc(F)cc1
Response given: 0.0

Challenge: Same thing, different molecule: CCC1(c2ccccc2)NC(=O)N(CC(=O)Nc2ccccc2C(=O)NC2CCCC2)C1=O (configuration not stated)
Response given: 0.0

Challenge: Same thing, different molecule: OCC1OC(n2cnc3c(NCc4ccco4)ncnc32)C(O)C1O (configuration not stated)
Response given: 0.0

Challenge: Same thing, different molecule: Cc1ccc(NCCN(C)C)c2c(=O)c3cc(O)ccc3sc12
Response given: 0.0

Challenge: Same thing, different molecule: c1cc2c(cn1)cnc1cscc12
Response given: 0.0

Challenge: Same thing, different molecule: CCc1noc(C)c1C(=O)Nc1ccccc1N1CCOCC1
Response given: 0.0

Challenge: Same thing, different molecule: Cn1c(=O)c([N+](=O)[O-])c(NCCc2ccccc2)c2ccccc21
Response given: 0.0

Challenge: Same thing, different molecule: COc1cccc(/C=N/Nc2ncnc3c2ncn3Cc2ccccc2)c1O
Response given: 1.0

Challenge: Same thing, different molecule: CN(C(=O)OC(C)(C)C)c1ccc(-c2nc3ccccc3s2)cc1
Response given: 1.0

Challenge: Same thing, different molecule: Cn1nc(C(F)(F)F)c(C#N)c1N1CCN(c2ccccc2)CC1
Response given: 0.0

Challenge: Same thing, different molecule: CC(C)CC[n+]1ccccc1/C=C/c1ccc(N(C)C)cc1
Response given: 1.0

Challenge: Same thing, different molecule: CCCNC(=O)C1(C)CCCN(Cc2cccc(C#N)c2)C1 (configuration not stated)
Response given: 0.0

Challenge: Same thing, different molecule: CC(=O)NC(c1ccc(C(C)C)cc1)c1ccc2cccnc2c1O (configuration not stated)
Response given: 1.0

###

assay.info: VP16 transactivation inhibitors, counter-screen for SRC1 inhibitor project, cell-based, luminescence, high throughput (AID 588824)
condition.summary: cell-based VP16 transactivation luciferase luminescence; at 3.6 µM
The source made the active and inactive calls. Rule as the data show it: active = inhibition above about 25%; inactive = the rest.
Hi! Could you answer with just one of these? active, inactive

Challenge: Which outcome did this test record for the molecule CN1CCc2c(OCc3ccc(F)cc3)cccc2C1=O ?
Response given: inactive

Challenge: Same thing, different molecule: CCSc1nnc(NC(=O)C(C)(C(F)(F)F)C(F)(F)F)s1
Response given: inactive

Challenge: Same thing, different molecule: COc1ccc(-n2c(C)c(C(C)=O)c3cc(OC(C)=O)ccc32)cc1
Response given: active

Challenge: Same thing, different molecule: CCOC(=O)C1CCN(S(=O)(=O)c2ccc3c(c2)CC(C)N3C(=O)C2CC2)CC1 (stereo not given)
Response given: inactive

Challenge: Same thing, different molecule: COc1ccccc1C(=O)Nc1nc(-c2ccc(S(=O)(=O)N3CCOCC3)cc2)cs1
Response given: active

Challenge: Same thing, different molecule: CC1(Cc2cccc(F)c2)C(=O)Nc2ccc(-c3cccnc3)cc21 (stereo not given)
Response given: active

Challenge: Same thing, different molecule: CC(C)(C)c1ccc(-c2noc(CCC(N)=O)n2)cc1
Response given: active

Challenge: Same thing, different molecule: O=C(Nc1ccc(Oc2ccccc2)cc1)c1ccc2sc([C@H]3C[C@H](O)[C@@H](CO)O3)nc2c1
Response given: inactive

Challenge: Same thing, different molecule: O=C(NCCc1ccccc1)c1ccc2c(c1)OCCCO2
Response given: active

Challenge: Same thing, different molecule: CC1CCN(C(=O)c2scc3c2OCCO3)CC1
Response given: inactive

Challenge: Same thing, different molecule: COc1ccc(CNc2nn3c(-c4cccc(C(=O)N(C)C)c4)cnc3s2)cc1
Response given: active

Challenge: Same thing, different molecule: COc1ccc(-c2cncnc2-c2ccc(OC)cc2O)cc1
Response given: active

Challenge: Same thing, different molecule: O=C1CC(c2ccc3c(c2)OCO3)Sc2nc3ccccc3n21 (stereo not given)
Response given: inactive

Challenge: Same thing, different molecule: Cc1ccc2[nH]c3nc(N/N=C/c4cccc(O)c4)nnc3c2c1
Response given: active

Challenge: Same thing, different molecule: CC(C)Oc1ccc(C(=O)Nc2nc3ccccc3[nH]2)cc1
Response given: inactive

This collection of values is drawn from PubChem BioAssay.
